Target: human VR1 (Homo sapiens)
Construct: expressed in transfected cells
Sequence (Q8NER1 whole entry): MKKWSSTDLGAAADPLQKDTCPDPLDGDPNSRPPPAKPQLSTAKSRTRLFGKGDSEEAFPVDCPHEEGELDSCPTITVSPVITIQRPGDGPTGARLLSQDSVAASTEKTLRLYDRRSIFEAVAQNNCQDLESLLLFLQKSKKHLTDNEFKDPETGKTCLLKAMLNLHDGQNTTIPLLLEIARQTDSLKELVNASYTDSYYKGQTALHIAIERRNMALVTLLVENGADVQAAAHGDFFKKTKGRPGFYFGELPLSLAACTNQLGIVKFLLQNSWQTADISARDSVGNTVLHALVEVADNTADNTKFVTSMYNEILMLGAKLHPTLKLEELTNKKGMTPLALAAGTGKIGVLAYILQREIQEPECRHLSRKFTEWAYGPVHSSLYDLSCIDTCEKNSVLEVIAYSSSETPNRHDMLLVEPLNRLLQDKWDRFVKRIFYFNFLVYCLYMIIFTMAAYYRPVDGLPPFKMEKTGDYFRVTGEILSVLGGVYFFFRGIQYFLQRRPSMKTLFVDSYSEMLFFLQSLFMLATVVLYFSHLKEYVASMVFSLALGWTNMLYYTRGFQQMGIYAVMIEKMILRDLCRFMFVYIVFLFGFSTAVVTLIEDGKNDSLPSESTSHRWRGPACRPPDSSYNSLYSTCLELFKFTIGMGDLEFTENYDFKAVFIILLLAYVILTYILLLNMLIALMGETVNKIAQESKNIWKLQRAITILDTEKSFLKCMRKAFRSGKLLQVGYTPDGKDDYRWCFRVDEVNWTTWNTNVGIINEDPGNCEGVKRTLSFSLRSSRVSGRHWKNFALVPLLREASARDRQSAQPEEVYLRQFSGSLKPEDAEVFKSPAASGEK
Assay: capsaicin-induced Ca2+ influx in the human VR1-transfected CHO cell line (Assay 1)
Type: cell-based
Conditions: Table 1; 10 nM capsaicin, human VR1-CHOluc9aeq cells; read-out: activity class
Measured IC50 values are reported for all entries that follow.

- compound: "COc1ccc(NC(=O)Nc2cccc3c2CC(O)CC3)cc1 (centres unmarked)"
  system tested: "human VR1 (Homo sapiens)"
  IC50: "> 1000 nM"
- compound: "O=C(Nc1ccccc1)Nc1cccc2c1CC(O)CC2 (centres unmarked)"
  system tested: "human VR1 (Homo sapiens)"
  IC50: "500 to 1000 nM"
- compound: "Cc1ccc(CNC(=O)Nc2cccc3c2CC(O)CC3)cc1 (centres unmarked)"
  system tested: "human VR1 (Homo sapiens)"
  IC50: "< 100 nM"
- compound: "Cc1ccccc1CNC(=O)Nc1cccc2c1CC(O)CC2 (centres unmarked)"
  system tested: "human VR1 (Homo sapiens)"
  IC50: "100 to 500 nM"

Which IC50 is reported for this compound? Cc1cc(NC(=O)Nc2cccc3c2CC(O)CC3)ccc1Cl (centres unmarked)
< 100 nM

Also O=C(Nc1ccc(C(F)(F)F)cc1)Nc1cccc2c1CC(O)CC2 (centres unmarked) ?
< 100 nM

Also O=C(NCCc1ccccc1)Nc1cccc2c1CC(O)CC2 (centres unmarked) ?
500 to 1000 nM

Also O=C(Nc1ccc(Br)cc1)Nc1cccc2c1CC(O)CC2 (centres unmarked) ?
< 100 nM

Also O=C(Nc1ccc(F)cc1)Nc1cccc2c1CC(O)CC2 (centres unmarked) ?
100 to 500 nM

Also CC1(O)CCc2cccc(NC(=O)Nc3ccc(Cl)c(C(F)(F)F)c3)c2C1 (centres unmarked) ?
100 to 500 nM

Also O=C(NCc1ccccc1Cl)Nc1cccc2c1CC(O)CC2 (centres unmarked) ?
100 to 500 nM

Also O=C(NCc1cccc(F)c1)Nc1cccc2c1CC(O)CC2 (centres unmarked) ?
100 to 500 nM

Also O=C(Nc1ccc2ccccc2c1)Nc1cccc2c1CC(O)CC2 (centres unmarked) ?
< 100 nM

Also CC(C)c1ccc(NC(=O)Nc2cccc3c2CC(O)CC3)cc1 (centres unmarked) ?
< 100 nM
